test_system: LXRβ full length (FL) (Homo sapiens, UniProt P55055, DUP175-175)
Construct: the full length (FL) proteins of LXRα (amino acids 1-447); NP005684; NP009052
test: LXR Gal4 reporter transient transfection assay (M2H), Gal4β FL
test_settings: HEK293 cells; read-out: M2H Gal4β FL activity range (EC50)
Some compounds, each annotated with its measured EC50.

Solved entries (count: 2):
>>> assay_value("Cc1cc(C)c(S(=O)(=O)N(Cc2ccc(-c3cccc(S(=O)(=O)CC(=O)O)c3)cc2)Cc2cncc(C(F)(F)F)c2)c(C)c1")
"1000 to 10000 nM"
>>> assay_value("Cc1cc(C)c(S(=O)(=O)N(Cc2ccc(-c3cccc(S(=O)(=O)CC(=O)O)c3)cc2)Cc2ccc(F)cc2Cl)c(C)c1")
"100 to 1000 nM"

Now consider the entry below.
Query block: // map Cc1cc(C)c(S(=O)(=O)N(Cc2ccc(-c3cc(F)c(CO)c(S(C)(=O)=O)c3)cc2)Cc2ccc(C(F)(F)F)o2)c(C)c1 to recorded EC50 (system: LXRβ full length (FL) (Homo sapiens, UniProt P55055, DUP175-175))
Result block: < 100 nM

----------
test_system: LXRα full length (FL) (Homo sapiens)
Construct: the full length (FL) proteins of LXRα (amino acids 1-447); NP005684
Sequence (Q13133 whole entry, the tested form may be a part): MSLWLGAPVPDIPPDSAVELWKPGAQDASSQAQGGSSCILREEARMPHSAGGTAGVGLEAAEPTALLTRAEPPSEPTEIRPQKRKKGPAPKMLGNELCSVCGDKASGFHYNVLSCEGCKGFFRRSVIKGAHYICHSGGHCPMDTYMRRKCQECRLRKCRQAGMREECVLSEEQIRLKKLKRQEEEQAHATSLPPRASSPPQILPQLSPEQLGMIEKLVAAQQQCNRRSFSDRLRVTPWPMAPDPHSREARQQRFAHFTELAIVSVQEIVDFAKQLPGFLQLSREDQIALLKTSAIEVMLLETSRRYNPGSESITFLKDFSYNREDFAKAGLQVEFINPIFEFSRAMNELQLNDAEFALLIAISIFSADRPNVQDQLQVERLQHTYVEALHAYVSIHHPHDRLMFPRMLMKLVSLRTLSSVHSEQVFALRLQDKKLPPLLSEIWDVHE
test: LXR Gal4 reporter transient transfection assay (M2H), Gal4α FL
test_settings: HEK293 cells; read-out: M2H Gal4α FL activity range (EC50)
Some compounds, each annotated with its measured EC50.

Solved entries (count: 2):
>>> assay_value("Cc1ccc2ncccc2c1S(=O)(=O)N(Cc1ccc(-c2cccc(C(C)(C)C(=O)O)c2)cc1)Cc1ccc(C(F)(F)F)o1 [10/15]")
"< 0.1 µM"
>>> assay_value("Cc1ccc2cccnc2c1S(=O)(=O)N(Cc1ccc(-c2cccc(S(=O)(=O)CC(=O)O)c2)cc1)Cc1ccc(C(F)(F)F)o1 [10/11]")
"1 to 10 µM"

Query block: // map Cc1cc(C)c(S(=O)(=O)N(Cc2ccc(-c3cccc(S(=O)(=O)CC(=O)O)c3)cc2)Cc2ccc(F)c(C)c2)c(C)c1 [11/5] to recorded EC50 (system: LXRα full length (FL) (Homo sapiens))
Result block: 1 to 10 µM

Query block: // map Cc1ccc2ccccc2c1S(=O)(=O)N(Cc1ccc(-c2cccc(C(C)(C)C(=O)O)c2)cc1)Cc1cc2ccccc2o1 [10/17] to recorded EC50 (system: LXRα full length (FL) (Homo sapiens))
Result block: 0.1 to 1 µM

Query block: // map Cc1ccc(S(=O)(=O)N(Cc2ccc(-c3cccc(S(=O)(=O)CC(=O)O)c3)cc2)Cc2ccc(C(F)(F)F)o2)c(C)c1 [10/12] to recorded EC50 (system: LXRα full length (FL) (Homo sapiens))
Result block: 1 to 10 µM

Query block: // map Cc1cc(C)c(S(=O)(=O)N(Cc2ccc(-c3cc(F)c(CO)c(S(C)(=O)=O)c3)cc2)Cc2ccc(C(F)(F)F)o2)c(C)c1 [Example C3/2] to recorded EC50 (system: LXRα full length (FL) (Homo sapiens))
Result block: < 0.1 µM

Query block: // map COc1cccc(CN(Cc2ccc(-c3cccc(S(=O)(=O)CC(=O)O)c3)cc2)S(=O)(=O)c2c(C)cc(C)cc2C)c1 [11/3] to recorded EC50 (system: LXRα full length (FL) (Homo sapiens))
Result block: 1 to 10 µM

----------
test_system: GST-LXRβ ligand-binding domain (Homo sapiens, UniProt P55055, DUP175-175)
Construct: amino acids 156-461; NP009052; made in house; host or cells: E. coli
Sequence (P55055 with tags, fused parts or gaps DUP175-175): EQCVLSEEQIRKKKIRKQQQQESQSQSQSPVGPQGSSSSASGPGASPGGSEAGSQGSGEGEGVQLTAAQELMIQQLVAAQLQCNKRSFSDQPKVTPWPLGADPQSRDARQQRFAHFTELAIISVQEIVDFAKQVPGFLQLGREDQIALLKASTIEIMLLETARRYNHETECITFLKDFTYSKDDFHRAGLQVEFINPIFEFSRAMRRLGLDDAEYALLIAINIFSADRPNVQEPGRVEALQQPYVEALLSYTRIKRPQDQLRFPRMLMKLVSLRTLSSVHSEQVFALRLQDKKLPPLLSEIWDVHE
test: TR-FRETβ activity assay (LXRβ-LBD / NCoA3 coactivator peptide, prestimulated with 24(S)-25-epoxycholesterol)
Type: biochemical
Parameters: key: ag=agonist; ia=inverse agonist
test_settings: agonist or inverse agonist
assay_readout: behavior in FRET assay

>>> assay_value("Cc1ccc2ccccc2c1S(=O)(=O)N(Cc1ccc(-c2cccc(S(=O)(=O)CC(=O)O)c2)cc1)Cc1ccc(C(F)(F)F)o1")
"ia"
>>> assay_value("Cc1ccc2ccccc2c1S(=O)(=O)N(Cc1ccc(-c2cccc(S(=O)(=O)CC(=O)O)c2)cc1)Cc1cc(C(F)(F)F)co1")
"ia"
>>> assay_value("COC(=O)CS(=O)(=O)c1cccc(-c2ccc(CN(Cc3ccc(C(F)(F)F)o3)S(=O)(=O)c3c(C)cc(C)cc3C)cc2)c1")
"ia"

----------
test_system: LXRα ligand-binding domain (LBD) (Homo sapiens, UniProt Q13133)
Sequence (Q13133 155-447): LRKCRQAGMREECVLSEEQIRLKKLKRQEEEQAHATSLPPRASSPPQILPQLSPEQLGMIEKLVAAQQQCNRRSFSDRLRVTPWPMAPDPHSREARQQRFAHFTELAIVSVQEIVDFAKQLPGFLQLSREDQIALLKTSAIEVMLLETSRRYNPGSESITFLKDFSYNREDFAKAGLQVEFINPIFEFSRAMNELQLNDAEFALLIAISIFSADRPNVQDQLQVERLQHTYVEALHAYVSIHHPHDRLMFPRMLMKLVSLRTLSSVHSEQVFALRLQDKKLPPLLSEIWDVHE
test: LXR Gal4 reporter transient transfection assay (M2H), Gal4α LBD
test_settings: HEK293 cells; read-out: M2H Gal4α LBD activity range (EC50)
Some molecules, each annotated with its measured EC50.

>>> assay_value("Cc1cc(C)c(S(=O)(=O)N(Cc2ccc(-c3cccc(CC(=O)O)c3)cc2)Cc2cccc(Br)c2)c(C)c1")
"100 to 1000 nM"

Query block: // returns reported EC50 for input COc1ccc(C(C)(C)C(=O)O)cc1-c1ccc(CN(Cc2ccc(C(F)(F)F)o2)S(=O)(=O)c2c(C)cc(C)cc2C)cc1
Result block: 1000 to 10000 nM

Query block: // returns reported EC50 for input Cc1cc(C)c(S(=O)(=O)N(Cc2ccc(-c3ccc(OCC(=O)O)cc3)cc2)Cc2ccc(C(F)(F)F)o2)c(C)c1
Result block: 100 to 1000 nM

----------
test_system: GST-LXRβ ligand-binding domain (Homo sapiens, UniProt P55055, DUP175-175)
Construct: amino acids 156-461; NP009052; made in house; host or cells: E. coli
test: TR-FRETβ activity assay (LXRβ-LBD / NCoA3 coactivator peptide, prestimulated with 24(S)-25-epoxycholesterol)
Format: biochemical
Parameters: key: ag=agonist; ia=inverse agonist
test_settings: agonist or inverse agonist
assay_readout: behavior in FRET assay

>>> assay_value("O=C(O)CS(=O)(=O)c1cccc(-c2ccc(CN(Cc3ccc(C(F)(F)F)o3)S(=O)(=O)c3c(Cl)cccc3Cl)cc2)c1")
"ag"
>>> assay_value("Cc1cccc(C)c1S(=O)(=O)N(Cc1ccc(-c2cccc(S(=O)(=O)CC(=O)O)c2)cc1)Cc1ccc(C(F)(F)F)o1")
"ia"
>>> assay_value("Cc1cc(C)c(S(=O)(=O)N(Cc2ccc(-c3cccc(S(=O)(=O)CC(=O)O)c3)cc2)Cc2c(F)cccc2Cl)c(C)c1")
"ag"
>>> assay_value("Cc1cc(C)c(S(=O)(=O)N(Cc2ccc(-c3cccc(S(=O)(=O)CC(=O)O)c3)cc2)Cc2ccc(F)c(C)c2)c(C)c1")
"ia"

----------
test_system: GST-LXRβ ligand-binding domain (Homo sapiens, UniProt P55055, DUP175-175)
Construct: amino acids 156-461; NP009052; made in house; host or cells: E. coli
Sequence (P55055 with tags, fused parts or gaps DUP175-175): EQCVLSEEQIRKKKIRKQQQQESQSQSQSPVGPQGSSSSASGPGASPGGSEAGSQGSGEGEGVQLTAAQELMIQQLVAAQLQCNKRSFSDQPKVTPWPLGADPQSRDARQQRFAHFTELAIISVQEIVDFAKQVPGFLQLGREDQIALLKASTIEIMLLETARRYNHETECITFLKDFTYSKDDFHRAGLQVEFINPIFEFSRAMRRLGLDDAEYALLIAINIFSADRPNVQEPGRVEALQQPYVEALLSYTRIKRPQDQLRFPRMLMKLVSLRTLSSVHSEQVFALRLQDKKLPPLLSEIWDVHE
test: TR-FRETβ activity assay (LXRβ-LBD / NCoA3 coactivator peptide, prestimulated with 24(S)-25-epoxycholesterol)
Assay type: biochemical
Set-up: key: ag=agonist; ia=inverse agonist
test_settings: agonist or inverse agonist
assay_readout: behavior in FRET assay

Solved entries (count: 5):
>>> assay_value("Cc1ccc2ncccc2c1S(=O)(=O)N(Cc1ccc(-c2cccc(C(C)(C)C(=O)O)c2)cc1)Cc1ccc(C(F)(F)F)o1")
"ia"
>>> assay_value("Cc1ccc2ccccc2c1S(=O)(=O)N(Cc1ccc(-c2cccc(C(C)(C)C(=O)O)c2)cc1)Cc1cc2ccccc2o1")
"ia"
>>> assay_value("Cc1cc(C)c(S(=O)(=O)N(Cc2ccc(-c3cccc(C(C)C(=O)O)c3)cc2)Cc2ccc(C(F)(F)F)o2)c(C)c1 (centres unmarked)")
"ia"
>>> assay_value("Cc1ccc2ccccc2c1S(=O)(=O)N(Cc1ccc(-c2cccc(C(C)(C)C(=O)O)c2)cc1)C1CCc2ccc(C(F)(F)F)cc21 (centres unmarked)")
"ia"
>>> assay_value("Cc1cc(F)c(S(=O)(=O)N(Cc2ccc(-c3cccc(S(=O)(=O)CC(=O)O)c3)cc2)Cc2ccc(C(F)(F)F)o2)c(F)c1")
"ag"

Query block: // returns reported behavior in FRET assay for input Cc1cc(C)c(S(=O)(=O)N(Cc2ccc(-c3cccc(CC(=O)O)c3)cc2)Cc2cccc(C(F)(F)F)c2)c(C)c1
Result block: ia
